# tested system: Na^+,K^+-ATPase (Canis lupus familiaris)
# assay notes: Dog kidney Na+,K+-ATPase inhibition (hydrolysis of 32P-ATP)
# Format: biochemical
# condition details: dog kidney enzyme; read-out: Na^+,K^+-ATPase Inhibition IC50
pIC50: −log10 of the molar value. Structures can show the parent of a compound that is named as a salt.
Lab note: compare pIC50 against 6. Equal or greater, write True. Smaller, write False.

{"compound": "CNCCCON=C1CCC2(C)C(C1)NC(=O)CC1C3CCC(=O)C3(C)CCC12 (centres unmarked)", "label": "False"}
{"compound": "CC12CCC3C(C(=O)OC4CC(=NOCCN)CCC43C)C1CCC2=O (centres unmarked) [I-bl, hydrochloride]", "label": "False"}
{"compound": "C[C@]12CCC(=NOCCN)CC1C(=O)C[C@@H]1[C@@H]2CC[C@]2(C)C(=O)CC[C@@H]12.Cl (mixture of isomers) [Compd. 22b, hydrochloride, reference compound]", "label": "True"}
{"compound": "CON=C1CC2C3CCC(=O)C3(C)CCC2C2(C)CCC(=NOCCN)CC2N1 (centres unmarked) [I-at, hydrochloride]", "label": "False"}
{"compound": "CNCCCON=C1CCC2(C)C(CCNC3C4CCC(=O)C4(C)CCC32)C1 (centres unmarked)", "label": "False"}
{"compound": "CC12CCC3C(C1CCC2=O)N(C=O)CCC1CC(=NOC2CCNC2)CCC13C (centres unmarked) [I-bd, hydrochloride]", "label": "False"}
{"compound": "CC12CCC3C(CC(=O)OC4CC(=NOCCN)CCC43C)C1CCC2=O (centres unmarked)", "label": "True"}
{"compound": "CC12CCC3C(NCCC4CC(=NOCCN)CCC43C)C1CCC2=O (centres unmarked)", "label": "True"}
{"compound": "CC12CCC3C(CCN(C=O)C4CC(=NOCCN)CCC34C)C1CCC2=O (centres unmarked) [I-an, hydrochloride]", "label": "False"}
{"compound": "CC12CCC3C(OCCC4CC(=NOCCN)CCC43C)C1CCC2=O (centres unmarked) [I-bt, hydrochloride]", "label": "True"}
{"compound": "CNCCCON=C1CCC2(C)C(CC(=O)NC3C4CCC(=O)C4(C)CCC32)C1 (centres unmarked) [I-aw, hydrochloride]", "label": "False"}
{"compound": "CC12CCC3C(CCOC4CC(=NOCCN)CCC43C)C1CCC2=O (centres unmarked) [I-bs, hydrochloride]", "label": "True"}
{"compound": "CC12CCC3C(NC(=O)CC4CC(=NOCCN)CCC43C)C1CCC2=O (centres unmarked) [I-av, hydrochloride]", "label": "False"}
{"compound": "CC12CCC3C(CCNC4CC(=NOCCN)CCC43C)C1CCC2=O (centres unmarked) [I-ak, dihydrochloride]", "label": "False"}
{"compound": "CC12CCC3C(CC(=S)NC4CC(=NOCCN)CCC43C)C1CCC2=O (centres unmarked) [I-aj, hydrochloride]", "label": "False"}
